# method notes: qHTS Assay for Lipid Storage Modulators (AID 1519); further: on the % scale 0 is the no-effect control and ±100 the full control effect
# measurement context: Drosophila S3 cells, BODIPY lipid droplet/cell ratio, laser cytometry; at 57.5 µM (top of the series); cells loaded with oleic acid
Inconclusive results are not listed. Active and inactive are the calls of the source. The call rests on the fitted dose curve.
endpoint: activity change, negative = inhibition

Solved entries (count: 6):
> print(dat)
                                   compound                                endpoint              result
1     Cc1noc(C)c1-c1nc(Nc2ccncc2)c2ccccc2n1  activity change, negative = inhibition   -8.29% (inactive)
2                     Cc1cc(O)cc(O)c1C(=O)O  activity change, negative = inhibition    4.63% (inactive)
3  CC1CCC2(OC1)OC1CC3C4CCC5CC(O)CCC5(C)C4=CCC3(C)C1C2C (stereo not given)  activity change, negative = inhibition  -0.725% (inactive)
4                    COC(=O)Oc1ccccc1C(=O)O  activity change, negative = inhibition     5.3% (inactive)
5  CC(C)CCCC(C)C1CCC2C3C(=O)C=C4CC(O)CC[C@@]4(C)C3CC[C@@]12C (stereo not given in full)  activity change, negative = inhibition   -2.06% (inactive)
6                     OC/C=C/c1ccc(O)c(O)c1  activity change, negative = inhibition    8.76% (inactive)

Notebook: C[C@H](CCC(=O)O)[C@H]1CC[C@H]2[C@H]3C(C[C@H](O)[C@]12C)[C@@]1(C)CC[C@@H](O)C[C@H]1C[C@H]3O (stereo not given in full) , activity change, negative = inhibition read as 9.53% (inactive)

Notebook: COC(=O)/C=C/C(C)=C/C=C/C(C)=C/C=C/C=C(C)/C=C/C=C(C)/C=C/C(=O)O , activity change, negative = inhibition read as 5.02% (inactive)

Notebook: CC(=O)OC1CC[C@@]2(C)C(CC[C@@]3(C)C2CC=C2C4CC(C)(C)CC[C@]4(C)CC[C@@]23C)C1(C)C (stereo not given in full) , activity change, negative = inhibition read as 4.64% (inactive)

Notebook: CCC(CO)NCCNC(CC)CO (stereo not given) , activity change, negative = inhibition read as -3.77% (inactive)
